Target chain: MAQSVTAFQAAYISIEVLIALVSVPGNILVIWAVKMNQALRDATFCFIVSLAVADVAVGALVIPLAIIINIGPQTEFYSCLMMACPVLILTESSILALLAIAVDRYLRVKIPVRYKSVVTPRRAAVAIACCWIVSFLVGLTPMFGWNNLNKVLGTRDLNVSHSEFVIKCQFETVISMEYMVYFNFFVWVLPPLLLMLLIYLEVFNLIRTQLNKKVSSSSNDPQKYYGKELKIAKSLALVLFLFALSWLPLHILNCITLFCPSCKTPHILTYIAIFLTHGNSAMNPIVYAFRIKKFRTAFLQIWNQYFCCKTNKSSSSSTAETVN
measured quantity: Ki (nM)
Supply the numeric figure in nM, leaving out any unit text.

Quick one: Ki for OC[C@H]1O[C@@H](n2cnc3c(NC4CCCCC4)ncnc32)[C@H](O)[C@@H]1O ?
2.5
